B1: library; a variant is named by its letters at N, in order (parent)
chain: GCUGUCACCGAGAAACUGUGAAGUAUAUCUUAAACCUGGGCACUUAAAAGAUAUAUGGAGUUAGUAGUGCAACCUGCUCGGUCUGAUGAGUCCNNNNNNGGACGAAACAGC

variants of: B1; experiment: normalized RNA/DNA level with ligand (relative to sTRSVctl = 100) (log10 (% of sTRSVctl)); HEK293T; ligand: cyclic di-GMP (c-di-GMP-II aptamer); ligand concentration (+) RNA-Seq: 1 mM; higher = less ribozyme self-cleavage, higher mRNA level; conditions: reporter: mCherry (pCS4076), ligand present: yes
Observation Type: normalized RNA/DNA level with ligand (log10)

[
  {
    "Mutation": "AUUCUG",
    "Experimental Value": 1.81
  },
  {
    "Mutation": "UCUUUC",
    "Experimental Value": 1.86
  },
  {
    "Mutation": "GUAAUC",
    "Experimental Value": 1.56
  },
  {
    "Mutation": "AGGUAC",
    "Experimental Value": 1.81
  },
  {
    "Mutation": "AGCUAC",
    "Experimental Value": 1.81
  },
  {
    "Mutation": "CUCUCU",
    "Experimental Value": 1.79
  },
  {
    "Mutation": "CGCUCA",
    "Experimental Value": 1.68
  },
  {
    "Mutation": "GUUACU",
    "Experimental Value": 1.82
  },
  {
    "Mutation": "AGGGCA",
    "Experimental Value": 1.81
  },
  {
    "Mutation": "CCGAGG",
    "Experimental Value": 1.8
  },
  {
    "Mutation": "UUUUCG",
    "Experimental Value": 1.9
  },
  {
    "Mutation": "GACUAA",
    "Experimental Value": 1.74
  },
  {
    "Mutation": "UUGAGA",
    "Experimental Value": 1.77
  },
  {
    "Mutation": "AAGGAU",
    "Experimental Value": 1.7
  },
  {
    "Mutation": "GAUAUA",
    "Experimental Value": 1.7
  },
  {
    "Mutation": "CAACAA",
    "Experimental Value": 1.53
  },
  {
    "Mutation": "UGCUAA",
    "Experimental Value": 1.87
  },
  {
    "Mutation": "CAGUUU",
    "Experimental Value": 1.67
  },
  {
    "Mutation": "ACAGCU",
    "Experimental Value": 1.73
  },
  {
    "Mutation": "CUUGUU",
    "Experimental Value": 1.85
  },
  {
    "Mutation": "UCGCUC",
    "Experimental Value": 1.87
  },
  {
    "Mutation": "CGGUGA",
    "Experimental Value": 1.64
  },
  {
    "Mutation": "UUACAG",
    "Experimental Value": 1.86
  },
  {
    "Mutation": "GUCUGA",
    "Experimental Value": 1.75
  },
  {
    "Mutation": "UUAUCC",
    "Experimental Value": 1.86
  },
  {
    "Mutation": "UCGUCG",
    "Experimental Value": 1.88
  },
  {
    "Mutation": "GGGUGC",
    "Experimental Value": 1.85
  },
  {
    "Mutation": "AACGUC",
    "Experimental Value": 1.78
  },
  {
    "Mutation": "GUCAAG",
    "Experimental Value": 1.75
  },
  {
    "Mutation": "ACGGAC",
    "Experimental Value": 1.73
  },
  {
    "Mutation": "UCCAAA",
    "Experimental Value": 1.75
  },
  {
    "Mutation": "GAUCCA",
    "Experimental Value": 1.85
  },
  {
    "Mutation": "AAGCUA",
    "Experimental Value": 1.72
  },
  {
    "Mutation": "UAGAAU",
    "Experimental Value": 1.75
  },
  {
    "Mutation": "GCCGGA",
    "Experimental Value": 1.7
  },
  {
    "Mutation": "UGUACU",
    "Experimental Value": 1.87
  },
  {
    "Mutation": "GAAGCA",
    "Experimental Value": 1.88
  }
]
